Data origin, for the record: patent US20250145608A1

# Test Target: KRAS4B WT (Homo sapiens, UniProt P01116)
# Construct: HiBit; expressed in transfected cells; host or cells: GP5d cells (ECACC 95090715), stably transduced with lentivirus, CMV promoter
# Sequence (P01116 1-188 isoform P01116-2): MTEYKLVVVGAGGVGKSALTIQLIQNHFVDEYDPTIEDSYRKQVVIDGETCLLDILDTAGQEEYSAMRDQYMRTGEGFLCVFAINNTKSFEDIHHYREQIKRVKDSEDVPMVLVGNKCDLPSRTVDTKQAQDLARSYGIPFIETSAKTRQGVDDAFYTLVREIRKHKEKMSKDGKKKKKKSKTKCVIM
# Method: HiBit KRAS4B mutant spectrum degradation assay, KRAS4B WT in GP5d cells (18 h)
# Type: cell-based
# Measurement Conditions: KRAS mutation G12WT
DC50: recorded values
Give the value, in units of nM, as a plain number.

{"columns": ["Compound", "DC50 / nM"],
 "data": [
  ["Cc1ncsc1-c1ccc([C@@H](NC(=O)[C@@H]2C[C@@H](O)CN2C(=O)[C@H](C(C)C)n2cc(OCCCN3CCCN(c4nccc(-c5noc([C@@]6(C)CCCc7sc(N)c(C#N)c76)n5)n4)[C@@H](C)C3)nn2)[C@H](O)C(C)C)cc1 (single isomer, unassigned) [I-43]", 0.5],
  ["Cc1ncsc1-c1ccc([C@H](CO)NC(=O)[C@@H]2C[C@@H](O)CN2C(=O)[C@H](C(C)C)n2cc(OC(C)CCCN3CCCN(c4nccc(-c5noc([C@@]6(C)CCCc7sc(N)c(C#N)c76)n5)n4)[C@@H](C)C3)nn2)cc1 (stereo partly shown) [I-31]", 1.7],
  ["Cc1ncsc1-c1ccc(CNC(=O)[C@@H]2C[C@@H](O)CN2C(=O)[C@@H](c2cc(OCCCCN3CCCN(c4nccc(-c5noc([C@@]6(C)CCCc7sc(N)c(C#N)c76)n5)n4)[C@@H](C)C3)no2)C(C)C)cc1 (single isomer, unassigned) [I-27]", 0.7]
]}

# evaluate next
Problem: Hello, please tell me recorded DC50 for this one: Cc1ncsc1-c1ccc([C@H](CO)NC(=O)[C@@H]2C[C@@H](O)CN2C(=O)[C@H](C(C)C)n2cc(OCCCCN3CCCN(c4nccc(-c5noc([C@@]6(C)CCCc7sc(N)c(C#N)c76)n5)n4)[C@@H](C)C3)nn2)cc1 [I-29]
Solution: 0.8
